Tested on: NCI-H1755
Assay: relative viability (nuclei count vs DMSO), 5 days (fraction); higher = more cells survive
Settings: first compound 0.8 µM
assay_endpoint: relative viability

- compound: "Nc1cccc2c1CN(C1CCC(=O)NC1=O)C2=O (stereo not given) [Lenalidomide] + COc1cccc2cc(-c3nc([C@H]4CC[C@H](C(=O)O)CC4)n4ncnc(N)c34)[nH]c12 [OSI-027] (partner 0.5 µM)"
  value_measured: 0.72
- compound: "Nc1cccc2c1CN(C1CCC(=O)NC1=O)C2=O (stereo not given) [Lenalidomide] + CC(=O)c1c(C)c2cnc(Nc3ccc(N4CCNCC4)cn3)nc2n(C2CCCC2)c1=O [Palbociclib] (partner 0.5 µM)"
  value_measured: 0.434
- compound: "Nc1cccc2c1CN(C1CCC(=O)NC1=O)C2=O (stereo not given) [Lenalidomide] + O=C(c1cc(Cc2n[nH]c(=O)c3ccccc23)ccc1F)N1CCN(C(=O)C2CC2)CC1 [Olaparib] (partner 8 µM)"
  value_measured: 0.861
- compound: "Nc1cccc2c1CN(C1CCC(=O)NC1=O)C2=O (stereo not given) [Lenalidomide] + O=C(CCCCCCC(=O)Nc1ccccc1)NO [Vorinostat] (partner 1 µM)"
  value_measured: 0.649
- compound: "Nc1cccc2c1CN(C1CCC(=O)NC1=O)C2=O (stereo not given) [Lenalidomide] + N=C(N)NC(=N)NCCc1ccccc1 [Phenformin] (partner 250 µM)"
  value_measured: 0.615
